biological target: UniProt P29371; experiment: NK3 receptor affinity (Ki); type: binding
Sequence (P29371 whole entry): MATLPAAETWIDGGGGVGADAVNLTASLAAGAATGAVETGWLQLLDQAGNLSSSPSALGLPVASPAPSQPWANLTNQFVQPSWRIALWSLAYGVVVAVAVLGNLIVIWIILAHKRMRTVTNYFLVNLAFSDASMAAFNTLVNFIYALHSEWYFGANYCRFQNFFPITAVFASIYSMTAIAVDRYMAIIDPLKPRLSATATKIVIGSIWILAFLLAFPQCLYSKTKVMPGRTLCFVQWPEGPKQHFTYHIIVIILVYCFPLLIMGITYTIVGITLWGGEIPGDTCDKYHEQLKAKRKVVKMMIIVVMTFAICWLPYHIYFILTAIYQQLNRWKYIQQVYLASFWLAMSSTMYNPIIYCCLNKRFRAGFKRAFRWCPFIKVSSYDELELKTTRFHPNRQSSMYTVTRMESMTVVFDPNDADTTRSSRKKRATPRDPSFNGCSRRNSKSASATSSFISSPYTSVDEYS
Each item that follows carries a reported log10 Ki.
Property: log10 Ki (log10 of the value in nM)

Molecule: CC[C@H](NC(=O)c1c(C)n(-c2ccccc2)c(=O)c2c(Cl)cccc12)c1cccc(F)c1
log10 Ki: 1.67

Molecule: Cc1c(C(=O)N[C@H](c2ccccc2F)C2CC2)c2cccc(Cl)c2c(=O)n1-c1ccccc1
log10 Ki: 1.65

Molecule: Cc1c(C(=O)N[C@H](c2ccc(Cl)cc2)C2CC2)c2cccc(Cl)c2c(=O)n1-c1ccccc1
log10 Ki: 2.18

Molecule: Cc1c(C(=O)N[C@H](c2cccc(Cl)c2)C2CC2)c2cccc(Cl)c2c(=O)n1-c1ccccc1
log10 Ki: 1.77

Molecule: CC[C@H](NC(=O)c1c(C)n(-c2ccccc2)c(=O)c2c(Cl)cccc12)c1ccccc1F
log10 Ki: 2.43

Molecule: CC[C@H](NC(=O)c1c(C)n(-c2ccccc2)c(=O)c2c(Cl)cccc12)c1ccc(Cl)cc1
log10 Ki: 2.40

Molecule: CC[C@H](NC(=O)c1c(C)n(-c2ccccc2)c(=O)c2c(Cl)cccc12)c1ccc(F)cc1
log10 Ki: 2.26

Molecule: Cc1c(C(=O)N[C@H](c2ccc(F)cc2)C2CC2)c2cccc(Cl)c2c(=O)n1-c1ccccc1
log10 Ki: 1.74

Molecule: Cc1c(C(=O)N[C@H](c2cccc(F)c2)C2CC2)c2cccc(F)c2c(=O)n1-c1ccccc1
log10 Ki: 1.18

Molecule: Cc1c(C(=O)N[C@@H](c2cccc(F)c2)C2CC2)c2cccc(Cl)c2c(=O)n1-c1ccccc1
log10 Ki: 2.91

Molecule: CC[C@H](NC(=O)c1c(C)n(-c2ccccc2)c(=O)c2c(Cl)cccc12)c1cccc(Cl)c1
log10 Ki: 1.59

Molecule: Cc1c(C(=O)N[C@H](c2ccc(F)cc2)C2CCC2)c2cccc(Cl)c2c(=O)n1-c1ccccc1
log10 Ki: 1.49

Molecule: Cc1c(C(=O)N[C@H](c2cccc(F)c2)C2CCC2)c2cccc(F)c2c(=O)n1-c1ccccc1
log10 Ki: 1.00

Molecule: Cc1c(C(=O)NC(c2ccccc2F)C2CCC2)c2cccc(Cl)c2c(=O)n1-c1ccccc1 (centres unmarked)
log10 Ki: 2.18

Molecule: Cc1c(C(=O)N[C@H](c2cccc(F)c2)C2CCC2)c2cccc(Cl)c2c(=O)n1-c1ccccc1
log10 Ki: 1.49

Molecule: CC[C@H](NC(=O)c1c(C)n(-c2ccccc2)c(=O)c2c(Cl)cccc12)c1ccccc1Cl
log10 Ki: 2.38

Molecule: Cc1c(C(=O)N[C@H](c2ccccc2Cl)C2CC2)c2cccc(Cl)c2c(=O)n1-c1ccccc1
log10 Ki: 1.69
